measurement_protocol: reduction of polyQ htt aggregates in cells – imaging, exon1htt(103Q)mCFP cells, high-content imaging, primary screen (AID 483);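 further: compound exposure lasted 3 days before fixation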
experimental_setup: exon1htt(103Q)mCFP cell line, aggregate imaging, at 2 µM; stronger effect = higher value
reported_endpoint: inhibition of aggregation (%)

| molecule | reported_endpoint | value_observed |
| --- | --- | --- |
| COc1ccc(-n2nc3cc(C)c(N)c(Br)c3n2)cc1 | inhibition of aggregation | 3.9 |
| O=C(CSc1nnc(-c2ccccc2)o1)NC1CCCCC1 | inhibition of aggregation | 8 |
| CCCCc1c(O)nc(SCC(=O)Nc2ccc3c(c2)CCC3)[nH]c1=O | inhibition of aggregation | -3 |
| O=c1c2c3c(sc2n2cnnc2n1CCc1ccccc1)CCCC3 | inhibition of aggregation | 3.7 |
| O=C1CC(c2ccsc2)c2cc3c(cc2N1)OCCO3 (stereo unspecified) | inhibition of aggregation | -4.2 |
| CC(=O)NCCc1ccc(S(=O)(=O)NCc2ccc3c(c2)OCO3)cc1 | inhibition of aggregation | -24.8 |
| O=C(CCSc1nnc(-c2ccncc2)o1)Nc1ccccc1 | inhibition of aggregation | 1 |
| COC(=O)C1=C(C)OC(N)=C(C#N)C1c1ccccc1 (stereo unspecified) | inhibition of aggregation | 5.6 |
| COc1ccccc1-c1cc(C(=O)Nc2cc(C)nn2-c2ccccc2)no1 | inhibition of aggregation | -24.6 |
| CCOc1cc(N2CCOCC2)c(OCC)cc1NC(=O)CSc1cccc[n+]1[O-] | inhibition of aggregation | 2.4 |
| c1ccc(-c2nnc(SCc3nc4ccccc4[nH]3)o2)cc1 | inhibition of aggregation | -3.4 |

---

The compounds listed here are annotated with their cell count.
measurement_protocol: inhibitors of TNFa-induced NFkB p65 translocation, primary screen, imaging, HUVEC, MLSMR starter and 10KST1 sets (AID 438);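 further: compound added about 3h40 before a 20 min TNFalpha stimulation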
experimental_setup: HUVEC TNFa-induced p65 nuclear translocation; measured here: nuclei count (cytotoxicity indicator), at 2.08 µM
reported_endpoint: cell count

| compound | value_observed |
| --- | --- |
| O=S(=O)(NCc1ccco1)c1cccc2cccnc12 | 336 |
| CCc1ccccc1N1C(=O)C2CC(C)=C(C)CC2C1=O (stereo not drawn) | 500 |
| CCN1CCN(C(=O)c2cn(CCOC)c(=O)c3c2c2ccccc2n3C)CC1 | 460 |
| CC(OC1=CC(=O)CCC1)C(=O)c1ccccc1 (stereo not drawn) | 370 |
| COc1ccccc1-c1cc(C(=O)Nc2cc(C)nn2-c2ccccc2)no1 | 478 |
| Cc1[nH]c(=O)[nH]c(=O)c1S(=O)(=O)N1CCCC(C(=O)NCc2ccco2)C1 (stereo not drawn) | 377 |
| C=CCn1cnc2c(NCc3ccccc3)ncnc21 | 387 |
| CCOC(=O)N1CCC(NC(=O)c2ccc3c(c2)N(CC)CCS3)CC1 | 382 |
| COc1cc(=O)[nH]c(SCc2c(F)c(F)c(F)c(F)c2F)n1 | 546 |
| COCCNC(=O)C(c1ccc(C)o1)N(C(=O)c1snc(C(N)=O)c1N)c1ccc(C)cc1 (stereo not drawn) | 498 |
| Cc1ccc(C2CC(c3ccc(C)cc3)n3nc(N)nc3N2)cc1 (stereo not drawn) | 871 |
| CCOc1ccc2oc(-c3ccccc3)c(C(=O)N3CCN(CCO)CC3)c2c1 | 649 |
| CCSC1(SCC)N=C(N)C2(C#N)C(c3ccccc3)NC(C)=C(C)C12C#N (stereo not drawn) | 422 |
| CC(c1ccco1)N(C(=O)c1ccc(S(=O)(=O)N2CCCCC2)cc1)c1ccccn1 (stereo not drawn) | 265 |
| CSc1cccc(NC(=O)CN(C)S(=O)(=O)c2ccccc2)c1 | 407 |
| O=C(c1nn2cccnc2c1Cl)N1CCN(c2ccccc2)CC1 | 344 |
| COC(=O)c1oc2ccc(Br)cc2c1NC(C)=O | 644 |
| O=C(CN1C(=O)c2cccc3cccc1c23)N1CCN(c2ccccc2)CC1 | 512 |
| CCOc1ccc2c(O)csc2c1 | 393 |
| CCOP(=O)(c1ccc(N(C)C)cc1)C(O)c1c(Cl)cccc1Cl (stereo not drawn) | 220 |
| Cc1ccc(S(=O)(=O)N2CCN(c3nc(C)nc4sc(C)c(C)c34)CC2)cc1 | 345 |
| COC(=O)CSc1nnc(-c2ccc(OC)cc2OC)o1 | 609 |
| O=C(Nc1cccc2ccccc12)c1ccc(Br)o1 | 638 |

---

experimental_system: Alpha-2C adrenergic receptor (Homo sapiens)
measurement_protocol: compounds altering alpha2C-coupled GIRK flux – cell-based, HEK293 alpha2C/GIRK1/2, thallium flux, primary screen (AID 624);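 further: slope of fluorescence ratio to pre-addition baseline per second over 15 to 24 s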
experimental_setup: thallium flux BTC fluorescence, at 10 µM, actives lie on both sides
reported_endpoint: slope

| molecule | value_observed |
| --- | --- |
| COc1ccccc1N(CC(=O)NC1CCCC1)C(=O)c1csnn1 | 0.00495 |
| O=C(NCc1ccccc1)C1CCN(S(=O)(=O)c2cccc3cccnc23)CC1 | 0.00702 |
| Cc1ccc(S(=O)(=O)NCCNC(=O)C2CCCNC2=O)cc1 (stereo unspecified) | 0.00341 |
| CCn1cnc2sc(C(=O)Nc3ccc4c(c3)OCO4)c(C)c2c1=O | 0.00678 |
| COCCN(C(=O)CNC(=O)c1ccco1)C(C(=O)NC1CCCCC1)c1cccc(OC)c1 (stereo unspecified) | 0.00264 |
| Cn1nnnc1SCSc1nnnn1C | 0.00536 |
| CN1C(=O)c2oc3ccccc3c(=O)c2C1c1ccccn1 (stereo unspecified) | 0.00452 |
| O=P(CCNCc1ccco1)(c1ccccc1)c1ccccc1 | 0.00716 |
| COc1nc(Oc2ccc(=O)n(C)n2)nc(N(C)C)n1 | 0.00579 |
| O=C(Nc1ccc2c(c1)OCCO2)c1cnc2n(c1=O)CCS2 | 0.00627 |
| COc1ccc(C/C(O)=C(\C#N)c2nc3ccccc3s2)cc1 | 0.0036 |

---

measurement_protocol: reduction of polyQ htt aggregates in cells – imaging, exon1htt(103Q)mCFP cells, high-content imaging, primary screen (AID 483);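 further: compound exposure lasted 3 days before fixation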
experimental_setup: exon1htt(103Q)mCFP cell line, aggregate imaging, at 2 µM; stronger effect = higher value
The source made the active and inactive calls.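 How the source made its calls: active means visual image review flags a hit and inhibition of aggregation exceeds 20%; inconclusive means visual hit but inhibition at or below 20%; inactive means no hit on visual image review.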
reported_endpoint: inhibition of aggregation

| record_smiles | reported_endpoint | value_observed |
| --- | --- | --- |
| Cc1nc2oc3c(NCc4ccccn4)ncnc3c2c2c1COC(C)(C)C2 | inhibition of aggregation | 2.7% (inactive) |
| CCc1ccccc1NC(=O)CSc1nc2n[nH]c(C)c2c(=N)n1-c1ccc(OC)cc1 | inhibition of aggregation | -1.3% (inactive) |
| Cc1ccc(NC(=O)COC(=O)c2ccn(C)n2)cc1 | inhibition of aggregation | -15.4% (inactive) |
| CCOC(=O)c1c(C)n(C)c2c(C)cc(O)c(OC(C)=O)c12 | inhibition of aggregation | -6.8% (inactive) |
| Nc1nnc(-c2ccccc2)c(-c2ccccc2)n1 | inhibition of aggregation | 26.8% (inactive) |
| COc1cc(NC(=O)CC(C)C)ccc1NC(=O)c1ccco1 | inhibition of aggregation | 10.4% (inactive) |
| COc1ccccc1C(=O)N1CCN(CCc2ccccc2)CC1 | inhibition of aggregation | -5.8% (inactive) |
| COc1ccccc1N1CCN(Cc2nnnn2CCc2ccccc2)CC1 | inhibition of aggregation | 2% (inactive) |
| COc1ccc(S(=O)(=O)Cc2ccc(C(=O)N3CCN(c4ccccc4)CC3)o2)cc1 | inhibition of aggregation | 5.7% (inactive) |
| C=CCn1c(=O)[nH]c2cc(C(=O)N3CCN(c4ccc(C(C)=O)cc4)CC3)ccc2c1=O | inhibition of aggregation | 20.3% (inactive) |
| O=C(c1cnc2n(c1=O)CCS2)N(C1CCCCC1)C1CCCCC1 | inhibition of aggregation | 6.9% (inactive) |

---

The molecules listed here are annotated with their inhibition.
measurement_protocol: inhibitors of TNFa-induced NFkB p65 translocation, primary screen, imaging, HUVEC, MLSMR starter and 10KST1 sets (AID 438);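 further: compound added about 3h40 before a 20 min TNFalpha stimulation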;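 on inhibition: signal is the nuclear over cytoplasmic p65 intensity ratio per well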
experimental_setup: HUVEC TNFa-induced p65 nuclear translocation; at 2 µM, stronger effect = higher value, 0% TNFa-plus-vehicle, 100% no-TNFa wells

| molecule | scale_unit | inhibition |
| --- | --- | --- |
| CC(C)CC(=O)N1CCN(S(=O)(=O)c2ccc(F)cc2)CC1 | % | 7.7 |
| COc1ccc(C(=O)N2CCOCC2)cc1Br | % | -7.6 |
| COc1ccc(OC)c(C2CC(=O)NC(SC)=C2C#N)c1 (configuration not stated) | % | -9.6 |
| COc1ccc(CN(CC(=O)NCC2CCCO2)C(=O)CCC(=O)Nc2cc(C)on2)cc1 (configuration not stated) | % | 7.6 |
| CC1=C(C(=O)OC(C)C)C(C2CC=CCC2)NC(=O)N1 (configuration not stated) | % | 2 |
| COc1ccc(C)cc1C(=O)CCC(=O)Nc1ccccc1N1CCOCC1 | % | 8.3 |
| Cc1cc(=O)oc2cc(OCC(=O)OCc3nnc(-c4ccccc4)o3)ccc12 | % | -7.7 |
| CCOc1ccc(C2C(C(=O)OC)=CN(CCOC)C=C2C(=O)OC)cc1 | % | 6 |
| O=C1c2ccccc2C(Nc2ccc3c(c2)OCO3)N1Cc1ccc2c(c1)OCO2 (configuration not stated) | % | -8.5 |
| Cc1cc(C)nc(N2CCC(C(=O)Nc3ccc4c(c3)CCC4)CC2)n1 | % | 6.3 |
| O=C1NC(c2ccco2)Nc2ccccc21 (configuration not stated) | % | -50 |
| Cc1nc(C)c(C(=O)OCC(=O)N2CCN(c3ccccc3)CC2)s1 | % | -4.8 |
| COc1ccc(C(=O)c2coc3ccc(O)c(CN4CCCCC4)c23)cc1 | % | -6.8 |
| COc1ccc(OC)c(C(=O)CSc2nc3ncccc3[nH]2)c1 | % | 9.5 |
| CCc1nnc(NC(=O)CSc2nnc(-c3ccccc3OC)n2-c2ccccc2)s1 | % | -6.9 |
| COc1ccc(CN2C(=O)c3ccccc3C2C(=O)NC2CCCC2)c(OC)c1 (configuration not stated) | % | -4.8 |
| COCCn1c(CN(Cc2ccccc2)Cc2ccccc2)nc2c1c(=O)n(C)c(=O)n2C | % | -19 |
| CCN1CCN(S(=O)(=O)c2ccc(S(=O)(=O)N(CC)Cc3ccccc3)cc2)CC1 | % | -0.8 |
| COCCN1C(=O)c2oc3c(C)cc(C)cc3c(=O)c2C1c1cccc(O)c1 (configuration not stated) | % | -25 |
| CCOC(=O)c1cc2c(=O)n3cccc(C)c3nc2n(Cc2ccco2)c1=NC(=O)c1cccnc1 | % | -1.1 |
| CCCCn1c(SCC(=O)OCC)nc2c1c(=O)[nH]c(=O)n2C | % | -0.3 |
| CCC(=O)c1ccc(OCC(O)CN2CCN(S(=O)(=O)N3CCCCC3)CC2)cc1 (configuration not stated) | % | 1.3 |
